IC50 listing for selected molecules.
- system: DRB1*0404 (Homo sapiens, UniProt P01903+P01911, A100R/A169T/F76Y/I96L/K127E/L162R/M171V/N62H/P40V/Q125Y/R42H/S133A/S149N/S66Y/V209L/W38E)
- assay_info: biochemical
- Assay type: binding
- details: IC50 nM to purified HLA DRB1*0404
Respond numerically; units are nM and should not be typed.

| smiles_notation | measurement_units | recorded_value |
| --- | --- | --- |
| CC[C@H](C)[C@H](NC(=O)[C@H](CCSC)NC(=O)[C@H](CC(N)=O)NC(=O)[C@@H](N)CC(N)=O)C(=O)N[C@@H](CC(N)=O)C(=O)N[C@@H](CC(N)=O)C(=O)N[C@@H](CC(=O)O)C(=O)N[C@@H](CC(C)C)C(=O)NCC(=O)N1CCC[C@H]1C(=O)N[C@@H](C)C(=O)N[C@H](C(=O)N[C@@H](C)C(=O)N[C@@H](CCC(N)=O)C(=O)N[C@@H](CCSC)C(=O)O)[C@@H](C)O | nM | 1830 |

[ask] Recorded IC50 of CSCC[C@H](NC(=O)[C@H](C)NC(=O)[C@H](CCCCN)NC(=O)[C@@H](N)CCC(N)=O)C(=O)N[C@@H](CCSC)C(=O)N[C@@H](CC(=O)O)C(=O)N[C@@H](CCC(N)=O)C(=O)N[C@H](C(=O)N[C@@H](CCCNC(=N)N)C(=O)N[C@@H](CCC(=O)O)C(=O)N[C@@H](CO)C(=O)N[C@@H](CCCNC(=N)N)C(=O)N[C@@H](CC(N)=O)C(=O)N1CCC[C@H]1C(=O)NCC(=O)O)C(C)C , please.
[reply] 1830

[ask] Consider the molecule CC[C@H](C)[C@H](NC(=O)[C@H](C)NC(=O)[C@@H](N)CCC(N)=O)C(=O)N[C@@H](CCSC)C(=O)N[C@@H](CC(=O)O)C(=O)N[C@@H](CCCCN)C(=O)N[C@@H](CC(=O)O)C(=O)N[C@H](C(=O)N[C@H](C(=O)N[C@@H](CC(C)C)C(=O)N[C@@H](CCCCN)C(=O)N[C@@H](C)C(=O)N[C@@H](CC(N)=O)C(=O)N[C@@H](Cc1ccccc1)C(=O)N[C@@H](CO)C(=O)O)[C@@H](C)CC)[C@@H](C)CC and give its measured IC50.
[reply] 310

[ask] What does the data say about its IC50? Entry: CC[C@H](C)[C@H](NC(=O)[C@H](CC(C)C)NC(=O)[C@H](CS)NC(=O)[C@H](CCC(=O)O)NC(=O)[C@@H](N)CCC(=O)O)C(=O)N[C@@H](CC(N)=O)C(=O)N[C@@H](CC(=O)O)C(=O)N1CCC[C@H]1C(=O)N[C@@H](Cc1c[nH]c2ccccc12)C(=O)N[C@H](C(=O)N[C@@H](CC(C)C)C(=O)N[C@@H](CC(C)C)C(=O)N[C@@H](CC(N)=O)C(=O)N[C@@H](C)C(=O)N[C@@H](CO)C(=O)O)C(C)C
[reply] 183

[ask] What value of IC50 has been reported for the following molecule? CC[C@H](C)[C@H](NC(=O)[C@H](CC(C)C)NC(=O)[C@H](C)NC(=O)[C@H](CO)NC(=O)[C@H](CCCNC(=N)N)NC(=O)[C@H](C)NC(=O)[C@H](CC(C)C)NC(=O)[C@H](Cc1ccccc1)NC(=O)[C@@H](NC(=O)[C@@H](N)CC(C)C)[C@@H](C)CC)C(=O)N[C@@H](CC(C)C)C(=O)N[C@@H](CCCNC(=N)N)C(=O)NCC(=O)N[C@@H](CO)C(=O)N[C@H](C(=O)O)C(C)C
[reply] 97
